- Test system: MS2 coat protein
- protocol_notes: apparent KD of MS2 coat protein; designed switch direction (-1 OFF switch, 1 ON switch): -1; higher = weaker reporter binding
- run_parameters: input ligand: none
Label Not fulfilled if apparent KD of MS2 coat protein falls below 20 nM; label Fulfilled in every other case.

Query: State whether the measured apparent KD of MS2 coat protein reaches 20 nM, counting equality as reaching it, for AGCUAGAUAGGAUAUGCCCGGGAUAACAUGAGGAUCACCCAUGUGACCGAUUCAUGUCCAGCAGAAGGGUUUGGGA [Mod of ViennaUCT 8 - Jieux - Exclusion 5] (Eterna round: R97, puzzle: Exclusion 5)
Reply: Not fulfilled

Query: State whether the measured apparent KD of MS2 coat protein reaches 20 nM, counting equality as reaching it, for AUAAUAUAUGUAGGAUAUCUGCACGAUUAGUGCAGAGAAGGACAUGAGGAUCACCCAUGUAAUUAAGAUCAAUUAUUAAAUUAU [ENG1/4-B1] (Eterna round: R96, puzzle: Exclusion NG 1)
Reply: Fulfilled

Query: State whether the measured apparent KD of MS2 coat protein reaches 20 nM, counting equality as reaching it, for GCACCGCGAGGAUAUACAUGAGGAUCACCCAUGUGUCCGCAGCGAUGUGUGUACAAAUGUAGAAGGCGCGUAAA [EX3 #60] (Eterna round: R97, puzzle: Exclusion 3)
Reply: Not fulfilled

Query: State whether the measured apparent KD of MS2 coat protein reaches 20 nM, counting equality as reaching it, for GGGCUGCGACGCAGCCAAACAAAACAUGAGGAUCACCCAUGUCAGGAUAUACCGAUGCAGCAUCUGUAGAAGGGACAGAUCCAA [Onlaorre] (Eterna round: R96, puzzle: Exclusion NG 3)
Reply: Fulfilled

Query: State whether the measured apparent KD of MS2 coat protein reaches 20 nM, counting equality as reaching it, for ACAUGACAUGAGGAUCACCCAUGUUAGGAUAUCCCUCGUCCUGACUGAACGUCGGAAUGGAGAAGGAGCAUGGC [Eternabot (L2) Solution 88] (Eterna round: R97, puzzle: Exclusion 1)
Reply: Fulfilled

Query: State whether the measured apparent KD of MS2 coat protein reaches 20 nM, counting equality as reaching it, for AGCAGACGAGGAUAUAAAUGAUAUAACAUGAGGAUCACCCAUGUACGAUCGAAUGAUCGUUUAGAAGGCGUCUGCU [E5/11-A1] (Eterna round: R97, puzzle: Exclusion 5)
Reply: Not fulfilled

Query: State whether the measured apparent KD of MS2 coat protein reaches 20 nM, counting equality as reaching it, for ACUUAUUGAGGAUAUACAUAAAUUUACAUGAGGAUCACCCAUGUUCUUCUAUGUAUAUAUGUAGAAGGCAGAAGAA [JL-ex5-4.31 Malcolm mod] (Eterna round: R97, puzzle: Exclusion 5)
Reply: Not fulfilled
